Measured values drawn from the supplement of paper PMC11196671 for this set.

# Experimental protocol: BHET released, HPLC; higher = more BHET released; extreme values may be limits of the assay
# Test parameters: PET substrate: aFilm; 60 °C; pH 7.5; 24 h
Listed next: entries and their corresponding BHET released.
Recorded endpoint: BHET released (mM)

1. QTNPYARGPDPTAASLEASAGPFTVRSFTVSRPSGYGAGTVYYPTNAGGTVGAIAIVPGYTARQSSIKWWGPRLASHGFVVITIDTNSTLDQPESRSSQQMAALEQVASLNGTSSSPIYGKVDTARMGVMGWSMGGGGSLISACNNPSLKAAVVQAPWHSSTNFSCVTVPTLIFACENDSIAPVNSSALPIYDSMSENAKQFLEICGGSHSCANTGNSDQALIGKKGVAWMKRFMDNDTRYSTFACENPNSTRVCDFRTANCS [Z1-PETase]
0
2. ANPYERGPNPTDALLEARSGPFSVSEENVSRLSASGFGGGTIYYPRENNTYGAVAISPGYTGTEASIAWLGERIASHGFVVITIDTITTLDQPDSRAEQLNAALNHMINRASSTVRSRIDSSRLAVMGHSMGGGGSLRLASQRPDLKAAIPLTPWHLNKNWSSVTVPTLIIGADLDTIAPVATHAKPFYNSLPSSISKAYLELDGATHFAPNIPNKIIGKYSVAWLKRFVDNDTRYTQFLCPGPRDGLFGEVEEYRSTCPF [TfCut2]
0.00625
3. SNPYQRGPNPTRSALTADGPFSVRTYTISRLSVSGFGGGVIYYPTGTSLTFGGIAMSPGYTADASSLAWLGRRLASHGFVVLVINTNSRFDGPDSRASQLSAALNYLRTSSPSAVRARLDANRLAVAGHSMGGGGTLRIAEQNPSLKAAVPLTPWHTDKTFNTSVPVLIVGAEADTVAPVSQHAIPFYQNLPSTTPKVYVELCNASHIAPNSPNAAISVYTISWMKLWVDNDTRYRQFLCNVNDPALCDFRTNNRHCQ [LCC-ICCG RIP]
0.0189
4. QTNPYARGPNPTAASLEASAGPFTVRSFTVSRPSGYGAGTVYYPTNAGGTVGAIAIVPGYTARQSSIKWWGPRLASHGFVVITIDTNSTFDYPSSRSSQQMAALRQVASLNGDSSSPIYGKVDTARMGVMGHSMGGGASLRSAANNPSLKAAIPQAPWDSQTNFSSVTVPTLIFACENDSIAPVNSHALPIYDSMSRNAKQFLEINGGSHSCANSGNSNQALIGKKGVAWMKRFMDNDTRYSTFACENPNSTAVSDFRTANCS [DuraPETase]
0.00502
5. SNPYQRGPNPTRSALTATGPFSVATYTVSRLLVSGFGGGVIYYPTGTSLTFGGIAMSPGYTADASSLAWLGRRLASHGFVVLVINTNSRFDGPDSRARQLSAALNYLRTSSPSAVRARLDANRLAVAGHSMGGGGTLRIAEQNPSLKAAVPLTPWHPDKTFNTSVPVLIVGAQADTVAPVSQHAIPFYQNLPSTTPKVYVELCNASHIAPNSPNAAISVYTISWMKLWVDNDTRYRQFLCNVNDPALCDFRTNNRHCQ [LCC-ICCG I6M]
0.0371
6. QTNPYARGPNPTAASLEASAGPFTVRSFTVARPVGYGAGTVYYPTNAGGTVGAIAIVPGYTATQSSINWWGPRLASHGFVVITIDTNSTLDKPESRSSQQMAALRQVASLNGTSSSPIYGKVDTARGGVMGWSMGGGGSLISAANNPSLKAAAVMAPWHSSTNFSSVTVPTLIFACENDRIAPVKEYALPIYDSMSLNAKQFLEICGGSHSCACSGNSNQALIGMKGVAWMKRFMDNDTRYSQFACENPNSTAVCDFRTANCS [HotPETase]
0.045
